B1: EMD (parent)
chain: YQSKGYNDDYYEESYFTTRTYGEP

Variants of: B1
protocol-notes: protein stability index of a GFP-peptide fusion (GPS, HEK-293T) (PSI 1-6); higher = more stable;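 note: lentivirally expressed fusions sorted by FACS into six bins by GFP to DsRed ratio, PSI derived from sequencing read proportions per bin multiplied by bin number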
assay-context: c terminus: a fixed tail appended
// protein stability index lookup, one value per entry

{"chain-sequence": "YQSKGTNDDYYEESYFTTRTYGEP [Y6T]", "protein stability index": 3.34}
{"chain-sequence": "YQSKGYNDDYYEESYFTTSTYGEP [R19S]", "protein stability index": 2.53}
{"chain-sequence": "YQSKGYNDDYYEESYFTMRTYGEP [T18M]", "protein stability index": 2.04}
{"chain-sequence": "YQSKGYNDDYYEESYHTTRTYGEP [F16H]", "protein stability index": 3.08}
{"chain-sequence": "YQSKGYNDDYYEESAFTTRTYGEP [Y15A]", "protein stability index": 2.92}
{"chain-sequence": "YQNKGYNDDYYEESYFTTRTYGEP [S3N]", "protein stability index": 2.45}
{"chain-sequence": "YNSKGYNDDYYEESYFTTRTYGEP [Q2N]", "protein stability index": 3.11}
{"chain-sequence": "YQRKGYNDDYYEESYFTTRTYGEP [S3R]", "protein stability index": 2.75}
{"chain-sequence": "YQSKGYNDDYYWESYFTTRTYGEP [E12W]", "protein stability index": 2.19}
{"chain-sequence": "YQSKGYNDDYYEESYFTTRTFGEP [Y21F]", "protein stability index": 2.02}
{"chain-sequence": "YQSCGYNDDYYEESYFTTRTYGEP [K4C]", "protein stability index": 2.63}

Values compiled from the supplement of paper PMC10567573.
